Taken from patent US20240307362A1.

Target entity: human Bub1 (Homo sapiens (Human))
Sequence (O43683 704-1085): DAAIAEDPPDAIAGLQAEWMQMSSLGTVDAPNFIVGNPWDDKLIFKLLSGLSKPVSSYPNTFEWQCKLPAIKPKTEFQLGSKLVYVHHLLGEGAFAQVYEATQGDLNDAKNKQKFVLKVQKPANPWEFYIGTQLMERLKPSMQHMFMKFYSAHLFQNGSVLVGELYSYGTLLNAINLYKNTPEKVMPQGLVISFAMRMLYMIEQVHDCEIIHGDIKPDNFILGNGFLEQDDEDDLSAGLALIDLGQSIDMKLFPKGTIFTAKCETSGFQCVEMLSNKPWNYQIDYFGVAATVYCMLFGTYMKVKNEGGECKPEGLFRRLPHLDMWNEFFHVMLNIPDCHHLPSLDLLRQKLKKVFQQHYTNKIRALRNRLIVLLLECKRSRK
Method: Bub1 high ATP kinase assay (TR-FRET)
Assay type: biochemical
Experimental setup: read-out: Bub1 high ATP (2 mM) IC50; 2 mM ATP
pIC50: −log10 of the molar value.
Listed next: entries and their corresponding pIC50.
Result type: pIC50

> print(dat)
                                   compound                      target.entity  result.type  qual  endpoint.value
1  Cc1cccc(Nc2c(-c3ccncc3OCC3(C)CCO3)[nH]c3c2C(=O)NCC3)c1Cl (single isomer, unassigned; (-)) [Example 57]  human Bub1 (Homo sapiens (Human))        pIC50     =            4.89
2  CCc1c(Cl)cccc1Nc1c(-c2ccncc2OCC2(C)CCO2)[nH]c2c1C(=O)NCC2 (stereo not shown)  human Bub1 (Homo sapiens (Human))        pIC50     =            5.55
3  Cc1c(F)cccc1Nc1c(-c2ccncc2OCC2(C)CCO2)[nH]c2c1C(=O)NCC2 (single isomer, unassigned; (-)) [Example 84]  human Bub1 (Homo sapiens (Human))        pIC50     =            4.83
4  COc1c(F)cccc1Nc1c(-c2ccncc2OCC2(F)COC2)[nH]c2c1C(=O)NCC2  human Bub1 (Homo sapiens (Human))        pIC50     <            4.70
5  COc1c(Cl)cccc1Nc1c(-c2ccncc2OCCC2CCO2)[nH]c2c1C(=O)NCC2 (racemic) [Example 24]  human Bub1 (Homo sapiens (Human))        pIC50     =            5.57
6  CC1(COc2cnccc2-c2[nH]c3c(c2Nc2cccc(Cl)c2OC(F)F)C(=O)NCC3)CCO1 (single isomer, unassigned) [Example 76]  human Bub1 (Homo sapiens (Human))        pIC50     <            4.70
7  COc1c(Cl)cccc1Nc1c(-c2ccncc2OCC2(C)CCO2)[nH]c2c1C(=O)NCC2 (racemic) [Example 46]  human Bub1 (Homo sapiens (Human))        pIC50     =            4.99
